# SYSTEM TESTED: T1, human CD25 (IL-2Rα) (human, UniProt P01589 22-213)
# T1 chain: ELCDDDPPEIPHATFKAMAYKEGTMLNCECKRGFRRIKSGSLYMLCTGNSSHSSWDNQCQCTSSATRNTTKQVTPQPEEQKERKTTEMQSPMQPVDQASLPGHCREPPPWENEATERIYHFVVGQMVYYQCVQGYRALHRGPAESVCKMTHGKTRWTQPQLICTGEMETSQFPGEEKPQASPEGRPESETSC
# TEST: Biacore; pH 7.4
pKd: −log10 of the molar value.
QUANTITY MEASURED: pKd

Below: 2 binders and their reported pKd.
14217 R38P T41R C125S (protein) APTSSSTKKTQLQLEHLLLDLQMILNGINNYKNPKLTPMLRFKFYMPKKATELKHLQCLEEELKPLEEVLNLAQSKNFHLRPRDLISNINVIVLELKGSETTFMCEYADETATIVEFLNRWITFSQSIISTLT | 6.49
14208 T41M F42Y C125S (protein) APTSSSTKKTQLQLEHLLLDLQMILNGINNYKNPKLTRMLMYKFYMPKKATELKHLQCLEEELKPLEEVLNLAQSKNFHLRPRDLISNINVIVLELKGSETTFMCEYADETATIVEFLNRWITFSQSIISTLT | 7.09

a = 14207 T41D F42Y C125S (protein) APTSSSTKKTQLQLEHLLLDLQMILNGINNYKNPKLTRMLDYKFYMPKKATELKHLQCLEEELKPLEEVLNLAQSKNFHLRPRDLISNINVIVLELKGSETTFMCEYADETATIVEFLNRWITFSQSIISTLT
b = 14206 T41E F42Y C125S (protein) APTSSSTKKTQLQLEHLLLDLQMILNGINNYKNPKLTRMLEYKFYMPKKATELKHLQCLEEELKPLEEVLNLAQSKNFHLRPRDLISNINVIVLELKGSETTFMCEYADETATIVEFLNRWITFSQSIISTLT
c = 14213 R38Q F42Y C125S (protein) APTSSSTKKTQLQLEHLLLDLQMILNGINNYKNPKLTQMLTYKFYMPKKATELKHLQCLEEELKPLEEVLNLAQSKNFHLRPRDLISNINVIVLELKGSETTFMCEYADETATIVEFLNRWITFSQSIISTLT
Endpoint returns the given binders ordered by ascending pKd. # the answer lists labels in the order requested
c, b, a

Hey, just so you know, these numbers are from patent US20250092108A1.
